tested on: U2OS; experiment: Incucyte cell viability with U2OS; format: toxicity, cell-based; conditions: human, 18 h, 10 µM, compound concentration 10 uM, replicate number 1, timepoint 18 hours; note: unitless GR value; below 1 slowed growth and below 0 cell loss
Entries whose Growth Rate is below 0.7 take 1 (yes); entries at or above 0.7 take 0 (no).

- molecule: "CCCOc1ccc2[nH]cc(C3=CCNCC3)c2n1.Cl"
  answer_label: "0 (no)"
- molecule: "CN1C[C@@H](NS(=O)(=O)N(C)C)C[C@@H]2c3cccc4c3c(cn4C)C[C@H]21.Cl [MESULERGINE HYDROCHLORIDE]"
  answer_label: "0 (no)"
- molecule: "C[C@@](Cc1c[nH]c2ccccc12)(NC(=O)Nc1ccc([N+](=O)[O-])cc1)C(=O)NCC1(c2ccccn2)CCCCC1"
  answer_label: "1 (yes)"
- molecule: "CN1CCN(c2ccc(Nc3c4ccccc4nc4ccccc34)cc2)CC1.Cl.Cl.O"
  answer_label: "1 (yes)"
- molecule: "CCCCCCCC/C=C\\CCCCCCCC(N)=O [OLEAMIDE]"
  answer_label: "0 (no)"
- molecule: "CC(=O)O[C@H]1C(=O)[C@@]2(C)[C@H]([C@H](OC(=O)c3ccccc3)[C@]3(O)C[C@H](OC(=O)[C@H](O)[C@@H](NC(=O)c4ccccc4)c4ccccc4)C(C)=C1C3(C)C)[C@]1(OC(C)=O)CO[C@@H]1C[C@@H]2O [PACLITAXEL]"
  answer_label: "1 (yes)"
- molecule: "CN1CCN(c2cc(-c3ccccc3)nc(N)n2)CC1"
  answer_label: "0 (no)"
- molecule: "C[C@@H](OC[C@@]1(c2ccccc2)CC[C@]2(CCC(=O)N2)CN1)c1cc(C(F)(F)F)cc(C(F)(F)F)c1 [ROLAPITANT]"
  answer_label: "0 (no)"
- molecule: "CC1=C(C)C(=O)C(C(C)(C)CC(=O)N(CCCCSC[C@H]2O[C@@H](n3cnc4c(N)ncnc43)[C@H](O)[C@@H]2O)Cc2cccc(-c3ccc(Cl)cc3)c2)=C(C)C1=O"
  answer_label: "1 (yes)"
- molecule: "Br.Oc1cc2c(cc1O)C(c1ccccc1)CNCC2 (stereo unspecified)"
  answer_label: "1 (yes)"

Data provenance: ChEMBL document CHEMBL5058564
